Listing: CC50 of selected compounds
- EXPERIMENT: Cytotoxicity against dog MDCK cells assessed as reduction in cell viability
- Assay type: cell-based, Canis lupus familiaris

# annotated cases, reported CC50 shown
Name the recorded CC50 of the item CC(=O)Nc1ccc2oc(-c3ccnc(C(=O)N4CCN([C@@H](c5ccccc5)c5nnn(C)n5)CC4)c3)nc2c1 in your answer.
> 200 µM

Name the recorded CC50 of the item CC(=O)Nc1ccc2oc(-c3ccnc(C(=O)N4CCN([C@H](c5ccccc5)c5nnn(C)n5)CC4)c3)nc2c1 in your answer.
144 µM

Name the recorded CC50 of the item CC(=O)Nc1ccc2oc(-c3ccnc(C(=O)N4CCN(C(c5ccc(C)cc5)c5nnn(C)n5)CC4)c3)nc2c1 (stereo unspecified) in your answer.
> 50 µM

Name the recorded CC50 of the item CC(=O)Nc1ccc2oc(-c3ccnc(C(=O)N4CCN(C(c5ccc(F)cc5)c5nnn(C)n5)CC4)c3)nc2c1 (stereo unspecified) in your answer.
> 50 µM

Name the recorded CC50 of the item CC(=O)Nc1ccc2oc(-c3ccnc(C(=O)N4CC5(CCN(C(c6ccccc6)c6nnn(C)n6)CC5)C4)c3)nc2c1 (stereo unspecified) in your answer.
32 µM

---
Name the recorded CC50 of the item NC(=O)c1ncn([C@@H]2O[C@H](CO)[C@@H](O)[C@H]2O)n1 [RIBAVIRIN] in your answer.
> 200 µM

Name the recorded CC50 of the item CC(=O)Nc1ccc2oc(-c3ccnc(C(=O)N4CCN(C(c5ccc(Cl)cc5)c5nnn(C)n5)CC4)c3)nc2c1 (stereo unspecified) in your answer.
> 50 µM

* * *

Listing: Cmax of selected compounds
- EXPERIMENT: Cmax in Balb/c mouse at 25 mg/kg, po administered as single dose
- Type: ADME, organism-based
- Set-up: route oral, dose 25 mg/kg
- TEST CONDITIONS: in vivo

Name the recorded Cmax of the item CC(=O)Nc1ccc2oc(-c3ccnc(C(=O)N4CCN([C@H](c5ccc(F)cc5)c5nnn(C)n5)CC4)c3)nc2c1 in your answer.
866 ng/mL

// next entry
Name the recorded Cmax of the item CC(=O)Nc1ccc2oc(-c3ccnc(C(=O)N4CCN(C(c5ccccc5)c5nnn(C)n5)CC4)c3)nc2c1 (racemic) in your answer.
572 ng/mL

These measurements were taken from ChEMBL document CHEMBL4825697.
